target: truncated form of human NaV 1.8 with full channel activity (expressed in HEK cells) (Homo sapiens); assay: E-VIPR assay detecting and measuring NaV inhibition properties (electrical stimulation, membrane potential FRET dyes); details: HEK cells expressing truncated human NaV 1.8, KIR2.1 BacMam; 11-point dose response; 30 min compound incubation; stimulation 10 Hz for 10 s; read-out: measured IC50 value in the E-VIPR Assay
Sequence (Q9Y5Y9 126-1722 limits assumed): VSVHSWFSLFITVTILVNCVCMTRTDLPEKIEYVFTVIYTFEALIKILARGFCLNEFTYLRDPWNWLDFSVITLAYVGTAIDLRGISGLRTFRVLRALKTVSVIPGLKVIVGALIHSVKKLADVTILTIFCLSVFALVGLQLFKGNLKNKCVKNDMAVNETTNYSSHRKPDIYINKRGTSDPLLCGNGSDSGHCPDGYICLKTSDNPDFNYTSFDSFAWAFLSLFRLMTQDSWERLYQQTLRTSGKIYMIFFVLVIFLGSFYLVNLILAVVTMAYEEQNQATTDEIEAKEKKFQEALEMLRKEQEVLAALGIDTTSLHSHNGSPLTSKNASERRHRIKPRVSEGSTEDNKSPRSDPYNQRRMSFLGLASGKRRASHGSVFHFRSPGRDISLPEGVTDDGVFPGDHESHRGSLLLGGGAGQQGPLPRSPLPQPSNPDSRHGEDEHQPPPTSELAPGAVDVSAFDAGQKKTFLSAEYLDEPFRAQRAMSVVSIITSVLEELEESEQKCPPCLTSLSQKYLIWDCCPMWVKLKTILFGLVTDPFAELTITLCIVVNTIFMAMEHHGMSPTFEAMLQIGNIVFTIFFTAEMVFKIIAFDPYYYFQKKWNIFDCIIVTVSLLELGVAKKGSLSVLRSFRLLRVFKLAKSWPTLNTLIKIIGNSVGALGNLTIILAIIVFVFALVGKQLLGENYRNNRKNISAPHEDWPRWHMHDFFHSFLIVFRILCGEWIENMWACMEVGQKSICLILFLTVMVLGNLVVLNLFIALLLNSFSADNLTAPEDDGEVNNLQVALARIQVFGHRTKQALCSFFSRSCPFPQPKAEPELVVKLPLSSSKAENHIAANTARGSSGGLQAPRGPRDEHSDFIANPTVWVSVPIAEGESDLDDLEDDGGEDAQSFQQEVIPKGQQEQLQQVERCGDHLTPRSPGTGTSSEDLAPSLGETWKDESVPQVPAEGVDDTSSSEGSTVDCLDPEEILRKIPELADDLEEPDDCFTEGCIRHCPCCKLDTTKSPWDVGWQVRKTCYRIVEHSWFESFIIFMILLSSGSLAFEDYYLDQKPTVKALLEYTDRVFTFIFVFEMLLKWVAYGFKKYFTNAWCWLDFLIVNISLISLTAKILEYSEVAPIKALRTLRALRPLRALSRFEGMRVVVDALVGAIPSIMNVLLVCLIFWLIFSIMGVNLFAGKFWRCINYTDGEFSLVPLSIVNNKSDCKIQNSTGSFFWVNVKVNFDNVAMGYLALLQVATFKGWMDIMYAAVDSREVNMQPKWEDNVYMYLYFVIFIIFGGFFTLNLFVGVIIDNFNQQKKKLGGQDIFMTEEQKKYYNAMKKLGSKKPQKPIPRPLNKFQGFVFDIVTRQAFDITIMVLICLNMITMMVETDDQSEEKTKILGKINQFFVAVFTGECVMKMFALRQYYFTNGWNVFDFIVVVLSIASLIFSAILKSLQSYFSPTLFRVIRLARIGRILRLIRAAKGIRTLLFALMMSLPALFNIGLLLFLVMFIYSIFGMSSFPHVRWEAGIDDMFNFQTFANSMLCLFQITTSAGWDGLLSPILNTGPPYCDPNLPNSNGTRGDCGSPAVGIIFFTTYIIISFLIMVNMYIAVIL
pIC50: −log10 of the molar value.
Answer each item with its documented pIC50.

query: Requested field: pIC50. Item: O=c1cc(-c2cc(C(F)(F)F)ncc2[C@H]2CC[C@H](C(F)(F)F)CC2)[nH]c2ccncc12 [Compound 305]
result: ≤ 5.30

query: Requested field: pIC50. Item: COc1cc(F)ccc1Oc1cc(C(C)(C)C)cc(C)c1-c1[nH]c2ccccc2c(=O)c1Cl (single isomer, unassigned) [Compound 312]
result: 5.70 to 6.30

query: Requested field: pIC50. Item: O=c1cc(-c2ccccc2OCc2ccccc2)[nH]c2ccccc12 [Compound 3, 2-(2-benzyloxyphenyl)-1H-quinolin-4-one]
result: 5.70 to 6.30

query: Requested field: pIC50. Item: Cc1c(Oc2ncc(C(F)(F)F)c(C)c2-c2cc(=O)c3c(N4Cc5cn[nH]c5C4)nccc3[nH]2)ccc(F)c1F [Compound 175]
result: 5.70 to 6.30

query: Requested field: pIC50. Item: O=c1cc(-c2ccccc2OCC2CC2)[nH]c2ccccc12 [Compound 2]
result: ≤ 5.30

query: Requested field: pIC50. Item: COc1cc(F)ccc1Oc1cc(C(C)(C)C)cc(C)c1-c1cc(=O)c2cccc(C)c2[nH]1 [Compound 32]
result: 5.70 to 6.30

query: Requested field: pIC50. Item: O=c1cc(-c2ccccc2OCc2cccc(F)c2)[nH]c2ccccc12 [Compound 4]
result: 5.70 to 6.30

query: Requested field: pIC50. Item: COc1cc(F)ccc1Oc1cc(C(C)(C)C)cc(C)c1-c1nc2cccc(F)c2c(=O)[nH]1 [Compound 38]
result: 5.70 to 6.30

query: Requested field: pIC50. Item: O=c1cc(-c2cc(Cl)c(C(F)(F)F)nc2N2CCCC(F)(F)CC2)[nH]c2c(F)cccc12 [Compound 95]
result: 5.70 to 6.30

query: Requested field: pIC50. Item: COc1cc(F)ccc1Oc1cc(C(C)(C)C)cc(C)c1-c1[nH]c2ccccc2c(=O)c1C (single isomer, unassigned) [Compound 334]
result: 5.30 to 5.70

query: Requested field: pIC50. Item: Cc1c(Oc2ncc(C(F)(F)F)c(C)c2-c2cc(=O)c3c(NC(C)(C)CO)nccc3[nH]2)ccc(F)c1F [Compound 170]
result: 5.70 to 6.30

query: Requested field: pIC50. Item: Cc1cc(-c2cc(=O)c3c(C)nccc3[nH]2)c(N2CCCC(F)(F)CC2)nc1C(F)(F)F [Compound 193]
result: ≤ 5.30

query: Requested field: pIC50. Item: O=c1[nH]c(-c2nc(C(F)(F)F)ccc2N2CCCC(F)(F)CC2)nc2ccccc12 [Compound 153]
result: ≤ 5.30

query: Requested field: pIC50. Item: CCN(c1nc2ccccc2cc1-c1cc(=O)c2c(C(N)=O)nccc2[nH]1)C1CCC1 [Compound 303]
result: ≤ 5.30

query: Requested field: pIC50. Item: COc1cc(F)ccc1Oc1cc(C(C)(C)C)cc(C)c1-c1nc(=O)c2ccccc2[nH]1 [Compound 28]
result: 5.70 to 6.30
